# Type: in vivo, human
# experimental-context: human, whole blood, oral, 0.003 mg/kg
measured-parameter: CL/F (mL/min/kg)
Number in mL/min/kg, nothing else.

Provide CL/F value for the following compound: C=CC[C@@H]1/C=C(\C)C[C@H](C)C[C@H](OC)[C@H]2O[C@@](O)(C(=O)C(=O)N3CCCC[C@H]3C(=O)O[C@H](/C(C)=C/[C@@H]3CC[C@@H](O)[C@H](OC)C3)[C@H](C)[C@@H](O)CC1=O)[C@H](C)C[C@@H]2OC 0.483

----------
# Type: in vivo, human
# experimental-context: human, whole blood, oral, 0.007 mg/kg
measured-parameter: CL/F (mL/min/kg)
Number in mL/min/kg, nothing else.

Provide CL/F value for the following molecule: C=CC[C@@H]1/C=C(\C)C[C@H](C)C[C@H](OC)[C@H]2O[C@@](O)(C(=O)C(=O)N3CCCC[C@H]3C(=O)O[C@H](/C(C)=C/[C@@H]3CC[C@@H](O)[C@H](OC)C3)[C@H](C)[C@@H](O)CC1=O)[C@H](C)C[C@@H]2OC 0.667
